Where these numbers come from: the METLIN SMRT retention time set (Domingo-Almenara et al. 2019)

test: gradient 5% acetonitrile 3 min, to 50% in 2 min, to 85% in 15 min, held 3 min, 100 µL/min; details: column: Zorbax Extend-C18 2.1 x 50 mm; eluents: water / acetonitrile, 0.1% formic acid
measurementKind: RP-LC retention time (s)

Guide cases for RP-LC retention time, answers given:
O=C1CC(C(=O)N2CCOCC2)CN1CCc1c[nH]c2ccc(Cl)cc12 (stereo unspecified)
677
Cc1ccccc1Nc1c(-c2ccc(Br)cc2)nc2cnccn12
1060
CSc1ccc(-c2nc3c(C)cccn3c2NC2CCCCC2)cc1
868
CC(C)NC(=O)c1ccc(-c2nnc3ccc(NC(=O)C4CCC4)cn23)cc1
724
COc1ccc(-c2nc3cnccn3c2Nc2cccc(Cl)c2C)cc1
965
Cc1ccc(-c2nc3ccccn3c2NC(=O)Nc2cccc(C)c2)cc1
716
O=C(NCCCN1CCOCC1)c1ccc(OCc2nnc(C(=O)Nc3ccccc3F)s2)cc1
658
CCC(=O)NCCc1csc(C2CCCN(C(=O)CC)C2)n1 (stereo unspecified)
591
OCCNCc1ccc(-c2ccc(Cl)cc2)o1
966
O=C(c1ccsc1)N1CCCCC1c1nncn1CC1CC1 (stereo unspecified)
681

a. CCn1nc(C)c(CCNC(=O)c2ccc3nc(C(C)C)oc3c2)c1C
b. O=c1ccc(-c2cccc(Cl)c2)nn1CCc1nc(-c2ccc(F)cc2)no1
Task: Lower RP-LC retention time: a or b ? To answer, give the label that identifies your chosen option.
Output: a
(a: 662 s, b: 1060 s)

I. Clc1ccc(-c2ccc(CNC3CC3)o2)c(Cl)c1
II. CCn1cc(-c2nc(C(=O)N3CCN(c4ccccc4F)CC3)cs2)c2cccnc21
Task: Between I and II , whose recorded RP-LC retention time is greater? Please reply using the label of the selected record.
Output: II
(II: 1040 s, I: 716 s)

====

experiment: gradient 5% acetonitrile 3 min, to 50% in 2 min, to 85% in 15 min, held 3 min, 100 µL/min; conditions: column: Zorbax Extend-C18 2.1 x 50 mm; eluents: water / acetonitrile, 0.1% formic acid
measurementKind: RP-LC retention time (s)

Cc1nc(-c2ccc3c(c2)n(CC(=O)N2CCc4ccccc42)c(=O)n3C(C)C)no1
922

1. CCCCn1cnc2c(-c3ccccc3)cn(CC(=O)NC(C)CC)c2c1=O (stereo not drawn)
2. O=C1NC2=C(C(=O)N(CCC3=CCCCC3)C2)C(c2ccccc2F)N1 (stereo not drawn)
Task: Could you tell me which of these two has the smaller RP-LC retention time figure? First: 1 Second: 2 Kindly state the label of the option you pick.
Output: 2
(2: 684 s, 1: 985 s)

====

assay: gradient 5% acetonitrile 3 min, to 50% in 2 min, to 85% in 15 min, held 3 min, 100 µL/min; conditions: column: Zorbax Extend-C18 2.1 x 50 mm; eluents: water / acetonitrile, 0.1% formic acid
measurementKind: RP-LC retention time (s)

CC1CCc2nn(CC(=O)Nc3ccc(F)cc3F)cc2C1 (stereo not drawn)
875
Cc1ccc(S(=O)(=O)N(C)CC2CCOCC2)cc1C
886
Cn1ncc2c3ccccc3n(CCCC(=O)N3CCN(c4ccccc4)CC3)c2c1=O
918

====

test: gradient 5% acetonitrile 3 min, to 50% in 2 min, to 85% in 15 min, held 3 min, 100 µL/min; conditions: column: Zorbax Extend-C18 2.1 x 50 mm; eluents: water / acetonitrile, 0.1% formic acid
measurementKind: RP-LC retention time (s)

CC(=O)c1ccc(N2CCN(C(=O)c3csc(-c4ccc(C)n4C)n3)CC2)cc1
955
CC(=O)N1CCC2(CC1)NC(=O)c1cccc(C)c1O2
650

A. CCc1ccc(Nc2nc(C(=O)NC)nc3ccccc23)cc1
B. O=C(COc1ccc(F)cc1)Nc1ccc(-c2nc(-c3ccc(Cl)cc3)no2)cc1
Task: Identify the entry with the larger RP-LC retention time. Options: A and B # answer = label of selected item
Output: B

====

assay: gradient 5% acetonitrile 3 min, to 50% in 2 min, to 85% in 15 min, held 3 min, 100 µL/min; conditions: column: Zorbax Extend-C18 2.1 x 50 mm; eluents: water / acetonitrile, 0.1% formic acid
measurementKind: RP-LC retention time (s)

Cc1ccc2ncn3c(=O)n(CC(=O)Nc4ccc5c(c4)OCO5)nc3c2c1
673
CCC(=O)NCc1nc2c(n1CC)CN(C(=O)c1ccc(C(F)(F)F)s1)CC2
579
CCC(=O)Nc1ccc(CCc2nc3ccc(C(=O)NCc4ccc(C)o4)cc3[nH]2)cc1
638
COc1ccc(C)cc1N1C(=O)CC(N2CCC(C(N)=O)CC2)C1=O (stereo not given)
590
CN(C)C(=O)c1cc2c(s1)CCC(C(=O)N1CCN(Cc3ccccc3)CC1)C2 (stereo not given)
556
Cc1ccc(S(=O)(=O)c2nnn3c2nc(N2CCN(c4ccccn4)CC2)c2ccccc23)cc1
711
CCOC(=O)C1CCN(C(=O)C2c3ccccc3C(=O)N3CCc4cc(OC)c(OC)cc4C23)CC1 (stereo not given)
766
Cc1ccc(-n2nc3c(N4CCCC(C(=O)NCCN5CCOCC5)C4)nnc(C)c3c2C)cc1 (stereo not given)
589
COC(=O)c1ccc2c(=O)n(-c3ccc(F)cc3)c(N3CCN(c4ccccn4)CC3)nc2c1
660
Cc1ccc(C(=O)N2CCC3(CC2)c2nccn2-c2ccccc2CN3CC(C)C)cc1F
786

====

test: gradient 5% acetonitrile 3 min, to 50% in 2 min, to 85% in 15 min, held 3 min, 100 µL/min; conditions: column: Zorbax Extend-C18 2.1 x 50 mm; eluents: water / acetonitrile, 0.1% formic acid
measurementKind: RP-LC retention time (s)

O=C(CN1CCC(c2nc(-c3ccc(F)cc3)no2)CC1)N1CCN(c2ccccc2)CC1
618
COc1ccc(C(=O)NC2CCN(c3ccc(F)cc3)C2=O)cc1 (stereo unspecified)
756
CCn1ccc2sc(C)c(C(=O)NCC(C)C)c2c1=O
747
O=C(C1=CN(c2ccc(F)cc2)c2ccccc2S1(=O)=O)N1CCOCC1
741
Cc1cc(C)c2c(N3CCSCC3)nc(C(=O)N3CCCN(C)CC3)nc2n1
600
COc1ccc2c(c1)C1(CCN(C(=O)c3cccc(Br)c3)C1)C(=O)N2C (stereo unspecified)
845

====

test: gradient 5% acetonitrile 3 min, to 50% in 2 min, to 85% in 15 min, held 3 min, 100 µL/min; conditions: column: Zorbax Extend-C18 2.1 x 50 mm; eluents: water / acetonitrile, 0.1% formic acid
measurementKind: RP-LC retention time (s)

CCc1cc(OCC(=O)N2CCN(c3ccccn3)CC2)nc2c1c(C)nn2-c1ccc(C)cc1
790
COc1cc2c(cc1OC)C(C1(O)CCCCC1)NCC2 (stereo not drawn)
660
O=C(NCCC1CCN(C(=O)Nc2cc(F)ccc2F)CC1)c1cccs1
818

====

test: gradient 5% acetonitrile 3 min, to 50% in 2 min, to 85% in 15 min, held 3 min, 100 µL/min; settings: column: Zorbax Extend-C18 2.1 x 50 mm; eluents: water / acetonitrile, 0.1% formic acid
measurementKind: RP-LC retention time (s)

Cc1nc(-c2ccc3c(c2)CCN3C(=O)c2ccc(F)cc2)cs1
961
COc1ccc(-c2nnc(SCC(=O)Nc3ccc(C)cc3Br)o2)cc1
986
COc1ccccc1-c1nc(-c2ccc3c(c2)ncn3CCN2CCOCC2)no1
625
O=C(NC1CC1)c1ccc(-n2cccc2)nc1
728
Cc1ccc(-n2c(=O)c3c(cc(C)n3C)n(CC(=O)Nc3cc(Cl)ccc3C)c2=O)cc1
952
Cc1ccc(CNC(=O)Cn2c(=O)cc(-c3nc(C4CC4)no3)c3ccccc32)cc1
950
COc1ccc2c(c1)C1(CCN(C(=O)c3ccc(C#N)cc3)C1)C(=O)N2C (configuration not stated)
735
Cc1ccsc1C(=O)NC1CCc2nnc(C3CC3)n2CC1 (configuration not stated)
587
NC(=O)C1(N2CCCCC2)CCN(C(=O)c2c(-c3ccccc3)nnc3ccccc23)CC1
588
Cc1[nH]c(C(=O)N2CCCC(C(=O)NCCCN3CCOCC3)C2)c(C)c1C(=O)OC(C)C (configuration not stated)
608
CCCNC(=O)c1ccc(S(N)(=O)=O)cc1
653
Cc1nc(N2CCOCC2)c2c(C(=O)NCc3ccc(Cl)cc3)c(C)oc2n1
797

====

assay: gradient 5% acetonitrile 3 min, to 50% in 2 min, to 85% in 15 min, held 3 min, 100 µL/min; conditions: column: Zorbax Extend-C18 2.1 x 50 mm; eluents: water / acetonitrile, 0.1% formic acid
measurementKind: RP-LC retention time (s)

I. Cc1cccc(-c2ncccc2CNS(=O)(=O)c2ccccc2F)c1
II. CCOc1ccc(-c2noc(Cn3nc(-c4ccc(C)cc4)ccc3=O)n2)cc1
Task: Which has the higher RP-LC retention time, I or II ? Could you answer with the label of the item you picked?
Output: II
(II: 1160 s, I: 702 s)

I. COC[C@@H]1CN(Cc2c(C)noc2C)C[C@H]1c1ccccn1
II. CCN(C(=O)c1cccs1)c1nc(-c2ccccc2)cs1
Task: Please let me know which one, I or II , has a lower measured RP-LC retention time value. Mark your selection by writing its label.
Output: I
(I: 580 s, II: 1220 s)
